EC50 values for the compounds below.
target_system: UniProt:Q03181
Sequence (Q03181 147-441): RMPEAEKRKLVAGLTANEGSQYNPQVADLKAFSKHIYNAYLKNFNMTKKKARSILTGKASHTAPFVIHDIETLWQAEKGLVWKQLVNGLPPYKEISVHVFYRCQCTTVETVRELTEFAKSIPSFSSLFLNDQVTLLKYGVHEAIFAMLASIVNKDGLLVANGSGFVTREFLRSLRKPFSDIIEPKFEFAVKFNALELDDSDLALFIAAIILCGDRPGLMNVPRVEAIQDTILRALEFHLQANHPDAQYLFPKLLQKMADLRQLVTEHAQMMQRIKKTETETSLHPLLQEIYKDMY
test_protocol: GAL4-DBD hPPARδ/LBD luciferase reporter assay in HEK293T cells
experimental_conditions: activation, HEK293T reporter, overnight
Answer format: numeric, µM implied, no suffix.

> print(dat)
                                   compound  observed.measurement
1  O=C(OCC(=O)c1ccc(O)cc1O)c1ccc(COc2ccc3ccccc3c2)o1 [GNF-6928]                   3.7
2  CCCOc1c(/C=C/C(=O)c2ccc(SCC(=O)O)c(OC)c2)cccc1OCC [GNF-1676]                  8.39
3  O=C(NCCCCOc1ccc(F)cc1)c1ccc([N+](=O)[O-])c(O)c1 [GNF-7176]                  7.24

# return recorded EC50 for entry CCOc1cccc(/C=N/c2cccc(-c3csc(/N=C/c4cccc(OCC)c4O)n3)c2)c1O [GNF-6878]
0.008

# return recorded EC50 for entry CC(C(=O)Nc1ccc(SC(F)F)cc1)N1CC=C(c2ccc(O)cc2)CC1 (centres unmarked) [GNF-8208]
7.86
